Here, each record is paired with measured growth inhibition data.
Experiment: NCI Yeast Anticancer Drug Screen. Data for the bub3 strain (AID 167)
Conditions: S. cerevisiae bub3 mutant strain, at 50.0 µM, stronger effect = higher value
Compounds without any hit were thinned out: in the full panel of roughly 79,000, 15% have a hit.
Just the number in %, nothing appended.

Given item CCCC(=O)NC(Nc1ccc(S(=O)(=O)Nc2nc(C)cc(C)n2)cc1)(C(F)(F)F)C(F)(F)F , the value recorded as its growth inhibition is -3.7

Given item Cn1c(=O)c2[nH]c(CCNC(=O)c3ccccc3)nc2n(C)c1=O , the value recorded as its growth inhibition is -40.8

Given item CCc1cc2c(c3c1CCCC3=O)CC1(Cc3ccc(C(=O)OC)cc3C1)C2 (stereo unspecified) , the value recorded as its growth inhibition is -8.95

Given item CC(=O)NC1=CC(=O)c2cc(C)cc(O)c2C1=O , the value recorded as its growth inhibition is 28.1

Given item [N-]=[N+]=NC(=O)C1C(c2ccccc2)=C1c1ccccc1 , the value recorded as its growth inhibition is 27.8

Given item NC(=O)CNC(=O)C(CO)NC(=O)OCc1ccccc1 (stereo unspecified) , the value recorded as its growth inhibition is -11.1

Given item COc1cc(OC)c2nc3ccccc3c(NCCC[N+](C)(C)[O-])c2c1[N+](=O)[O-] , the value recorded as its growth inhibition is -14.2

Given item COc1ccc(C(=O)CC(c2ccccc2)[C@H]2C(c3ccc(OC)cc3)=Nc3c(nc(SC)n(C)c3=O)NC2c2ccccc2)cc1 (stereo partly specified) , the value recorded as its growth inhibition is -0.35

Continuing:
Given item C/C(=C/C(=O)O)CC/C=C(/C)C(=O)O , the value recorded as its growth inhibition is 22.1

Given item CSc1nc2nc(C)c(C)nc2c(=O)[nH]1 , the value recorded as its growth inhibition is -0.75

Given item COc1ccc(C(c2cc3c(cc2O)OCO3)N2CCN(C(c3cc4c(cc3O)OCO4)c3ccc(OC)cc3OC)CC2)c(OC)c1 (stereo unspecified) , the value recorded as its growth inhibition is -11.9

Origin of measurements: PubChem BioAssay (NCI)
